# assayed target: Protein deacetylase HDAC6 (Homo sapiens)
# Sequence (Q9UBN7 whole entry): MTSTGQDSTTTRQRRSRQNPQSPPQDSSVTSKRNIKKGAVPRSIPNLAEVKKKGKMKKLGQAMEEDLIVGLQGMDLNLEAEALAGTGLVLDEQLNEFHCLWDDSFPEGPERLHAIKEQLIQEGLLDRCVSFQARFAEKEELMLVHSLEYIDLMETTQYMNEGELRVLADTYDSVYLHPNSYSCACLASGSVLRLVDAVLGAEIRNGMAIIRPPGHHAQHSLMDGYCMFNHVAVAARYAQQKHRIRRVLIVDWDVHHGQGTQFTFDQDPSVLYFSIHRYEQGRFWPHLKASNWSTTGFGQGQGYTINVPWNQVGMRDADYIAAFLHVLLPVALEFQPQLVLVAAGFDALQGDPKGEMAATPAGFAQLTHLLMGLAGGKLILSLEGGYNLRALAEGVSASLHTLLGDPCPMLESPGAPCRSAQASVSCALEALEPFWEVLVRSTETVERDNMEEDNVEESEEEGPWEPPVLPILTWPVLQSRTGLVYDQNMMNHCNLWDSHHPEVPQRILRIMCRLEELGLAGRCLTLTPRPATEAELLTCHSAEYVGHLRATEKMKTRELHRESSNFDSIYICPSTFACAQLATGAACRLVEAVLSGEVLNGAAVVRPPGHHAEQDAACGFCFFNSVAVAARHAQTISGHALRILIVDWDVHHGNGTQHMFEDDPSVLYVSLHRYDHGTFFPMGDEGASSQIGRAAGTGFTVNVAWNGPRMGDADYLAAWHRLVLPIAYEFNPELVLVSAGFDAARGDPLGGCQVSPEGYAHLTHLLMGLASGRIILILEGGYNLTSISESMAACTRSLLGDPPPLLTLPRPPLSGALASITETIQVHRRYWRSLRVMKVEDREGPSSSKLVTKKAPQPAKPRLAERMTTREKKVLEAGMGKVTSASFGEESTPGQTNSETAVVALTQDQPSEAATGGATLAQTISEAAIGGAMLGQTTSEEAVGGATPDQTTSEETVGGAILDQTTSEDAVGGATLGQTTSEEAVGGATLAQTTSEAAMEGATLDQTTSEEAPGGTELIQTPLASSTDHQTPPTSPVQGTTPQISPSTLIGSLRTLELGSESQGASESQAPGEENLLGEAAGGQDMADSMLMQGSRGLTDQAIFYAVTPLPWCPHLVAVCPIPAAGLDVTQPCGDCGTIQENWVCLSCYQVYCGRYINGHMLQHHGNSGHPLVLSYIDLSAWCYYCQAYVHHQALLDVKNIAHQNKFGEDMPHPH
property measured: IC50

| compound | result |
| --- | --- |
| CCC(=O)CCCCC[C@H](NC(=O)c1cncs1)c1[nH]c(-c2ccc(F)cc2)nc1C#N | > 45 µM |
| CCC(=O)CCCCCC(NC(=O)c1cncs1)c1[nH]c(-c2ccccc2)nc1C(=O)NCCN(C)C (stereo not drawn) | > 45 µM |
| CCC(=O)CCCCC[C@H](NC(=O)C12CCN(CC1)CC2)c1[nH]c(-c2ccc(F)cc2)nc1C#N | > 45 µM |
